Molecular target: recombinant CD73 (Homo sapiens (Human), UniProt P21589)
Assay: Inhibition of the CD73 enzyme in vitro (soluble recombinant CD73, AMP, Malachite Green)
Format: biochemical
Settings: recombinant CD73 0.5 nM, AMP 50 μM, 30 minutes at room temperature
Method: The concentration of inorganic phosphate was determined using a phosphate standard curve.
VALUE_KIND: IC50 (nM)

For the compound `CNC(=O)c1ccc(CC(OC[C@H]2O[C@@H](n3cnc4c(N)nc(Cl)nc43)[C@@H](F)[C@@H]2O)(C(=O)O)C(=O)O)cc1` , what IC50 is on record?
512

Now give it for `Nc1nc(Cl)nc2c1ncn2[C@@H]1O[C@H](COC(Cc2ccccc2F)(C(=O)O)C(=O)O)[C@@H](O)[C@@H]1F` too.
149

Also `Nc1nc(Cl)nc2c1ncn2[C@@H]1O[C@H](COC(Cc2ccc(-c3ccc(F)cc3)cc2)(C(=O)O)C(=O)O)[C@@H](O)[C@@H]1F` ?
65

Same question for `COc1nc(N)c2ncn([C@@H]3O[C@H](COC(Cc4ccccc4)(C(=O)O)C(=O)O)C[C@@H]3F)c2n1` please.
54500

1 = Nc1nc(Cl)nc2c1ncn2[C@@H]1O[C@H](COC(Cc2cc(C(=O)O)no2)(C(=O)O)C(=O)O)[C@@H](O)[C@@H]1F
2 = Nc1nc(Cl)nc2c1ncn2[C@@H]1O[C@H](COC(Cc2cccc(C(F)(F)F)c2)(C(=O)O)C(=O)O)[C@@H](O)[C@@H]1F
Of the pair 1 and 2 , name the member with the lesser recorded IC50. Answer with the label corresponding to your selection.
2

====

Target: recombinant CD73 (Homo sapiens (Human))
Test: Inhibition of the CD73 enzyme in vitro (soluble recombinant CD73, AMP, Malachite Green)
Type: biochemical
Settings: recombinant CD73 0.5 nM, AMP 50 μM, 30 minutes at room temperature
VALUE_KIND: IC50 (µM)

Example results:
May I ask what IC50 has been recorded for Nc1nc(Cl)nc2c1ncn2[C@@H]1O[C@H](COC(Cc2ccc(-c3cncnc3)cc2)(C(=O)O)C(=O)O)[C@@H](O)[C@@H]1F [compound 143] ?
0.136

Next up: Nc1nc(Cl)nc2c1ncn2[C@@H]1O[C@H](COC(Cc2csc(C(=O)O)n2)(C(=O)O)C(=O)O)[C@@H](O)[C@@H]1F [compound 68]
0.322

P = Nc1nc(Cl)nc2c1ncn2[C@@H]1O[C@H](COC(Cc2cccc(O)c2)(C(=O)O)C(=O)O)[C@@H](O)[C@@H]1F [compound 56]
Q = Nc1nc(Cl)nc2c1ncn2[C@@H]1O[C@H](COC(Cc2ccc(OCC(F)(F)F)cc2)(C(=O)O)C(=O)O)[C@@H](O)[C@@H]1F [compound 89]
R = Nc1nc(Cl)nc2c1ncn2[C@@H]1O[C@H](COC(Cc2ccc(Cl)c(OC(F)(F)F)c2)(C(=O)O)C(=O)O)[C@@H](O)[C@@H]1F [compound 125]
Sort low-to-high on IC50, please. Provide your answer as the labels ordered per the instruction.
Q, P, R

====

Biological target: endogenous, cell-bound CD73 on SK-MEL-28 cells (Homo sapiens (Human), UniProt P21589)
Sequence (P21589 27-574): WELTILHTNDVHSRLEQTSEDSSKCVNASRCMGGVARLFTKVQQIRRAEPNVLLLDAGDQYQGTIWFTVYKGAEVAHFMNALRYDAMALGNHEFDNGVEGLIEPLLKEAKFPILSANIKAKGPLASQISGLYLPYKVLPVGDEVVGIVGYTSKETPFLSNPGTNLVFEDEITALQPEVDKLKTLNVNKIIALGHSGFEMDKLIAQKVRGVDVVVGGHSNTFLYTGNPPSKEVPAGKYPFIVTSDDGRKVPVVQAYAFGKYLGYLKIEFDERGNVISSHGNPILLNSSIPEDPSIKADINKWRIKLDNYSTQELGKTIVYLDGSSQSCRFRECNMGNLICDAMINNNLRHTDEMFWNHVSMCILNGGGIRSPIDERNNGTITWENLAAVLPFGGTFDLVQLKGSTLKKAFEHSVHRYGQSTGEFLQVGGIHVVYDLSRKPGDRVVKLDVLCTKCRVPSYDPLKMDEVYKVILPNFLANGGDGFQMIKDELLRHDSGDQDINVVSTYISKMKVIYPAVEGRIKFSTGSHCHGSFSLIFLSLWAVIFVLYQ
Experiment: Inhibition of endogenous, cell-bound CD73 enzyme activity in SK-MEL-28 cells (AMP, Malachite Green)
Type: cell-based
Conditions: 100 μM AMP, 30 minutes at room temperature
Experimental: The day before the experiment, 5000 cells were plated per well in a 96-well plate. Cells were washed twice with 200 μL reaction buffer (20 mM HEPES, pH 7.4, 125 mM NaCl, 1 mM KCl, 2 mM MgCl2, 10 mM glucose) to remove residual inorganic phosphate. […] The concentration of inorganic phosphate was determined using a phosphate standard curve to determine IC50.
pIC50: −log10 of the molar value.
VALUE_KIND: pIC50

Sample records with pIC50:
Report pIC50 for `Nc1nc(Cl)nc2c1ncn2[C@@H]1O[C@H](COC(Cc2ccc(F)c(F)c2F)(C(=O)O)C(=O)O)[C@@H](O)[C@@H]1F` tested on endogenous, cell-bound CD73 on SK-MEL-28 cells (Homo sapiens (Human), UniProt P21589).
6.61

Now consider `Nc1nc(Cl)nc2c1ncn2[C@@H]1O[C@H](COC(Cc2ccc(Cl)c(OC(F)(F)F)c2)(C(=O)O)C(=O)O)[C@@H](O)[C@@H]1F` .
6.08

Note, next up: `O=C(O)C(Cc1ccccc1)(OC[C@H]1O[C@@H](n2cnc3c(O)nc(Cl)nc32)[C@@H](F)[C@@H]1O)C(=O)O`
5.59

Then what about the molecule `O=C(O)C(Cc1ccccc1)(OC[C@H]1O[C@@H](n2cnc3c(SC4CCCC4)nc(Cl)nc32)[C@@H](F)[C@@H]1O)C(=O)O` ?
5.72

Same read-out for CCOC(=O)C(Cc1ccc(OC(F)(F)F)cc1)(OC[C@H]1O[C@@H](n2cnc3c(N)nc(Cl)nc32)[C@@H](F)[C@@H]1O)C(=O)O (single isomer, unassigned) ?
6.22

A = Nc1nc(Cl)nc2c1ncn2[C@@H]1O[C@H](COC(Cc2ccccc2F)(C(=O)O)C(=O)O)[C@@H](O)[C@@H]1F
B = NC(=O)c1ccc(CC(OC[C@H]2O[C@@H](n3cnc4c(N)nc(Cl)nc43)[C@@H](F)[C@@H]2O)(C(=O)O)C(=O)O)cc1
C = Nc1nc(Cl)nc2c1ncn2[C@@H]1O[C@H](COC(Cc2ccc(Cl)c(Cl)c2)(C(=O)O)C(=O)O)[C@@H](O)[C@@H]1F
# sort list by recorded pIC50, greatest to least Answer format: list of labels, ordered as asked.
B, A, C
